Entries with reported IC50 on EGFR-TK (Homo sapiens)
Sequence (P00533 25-1210): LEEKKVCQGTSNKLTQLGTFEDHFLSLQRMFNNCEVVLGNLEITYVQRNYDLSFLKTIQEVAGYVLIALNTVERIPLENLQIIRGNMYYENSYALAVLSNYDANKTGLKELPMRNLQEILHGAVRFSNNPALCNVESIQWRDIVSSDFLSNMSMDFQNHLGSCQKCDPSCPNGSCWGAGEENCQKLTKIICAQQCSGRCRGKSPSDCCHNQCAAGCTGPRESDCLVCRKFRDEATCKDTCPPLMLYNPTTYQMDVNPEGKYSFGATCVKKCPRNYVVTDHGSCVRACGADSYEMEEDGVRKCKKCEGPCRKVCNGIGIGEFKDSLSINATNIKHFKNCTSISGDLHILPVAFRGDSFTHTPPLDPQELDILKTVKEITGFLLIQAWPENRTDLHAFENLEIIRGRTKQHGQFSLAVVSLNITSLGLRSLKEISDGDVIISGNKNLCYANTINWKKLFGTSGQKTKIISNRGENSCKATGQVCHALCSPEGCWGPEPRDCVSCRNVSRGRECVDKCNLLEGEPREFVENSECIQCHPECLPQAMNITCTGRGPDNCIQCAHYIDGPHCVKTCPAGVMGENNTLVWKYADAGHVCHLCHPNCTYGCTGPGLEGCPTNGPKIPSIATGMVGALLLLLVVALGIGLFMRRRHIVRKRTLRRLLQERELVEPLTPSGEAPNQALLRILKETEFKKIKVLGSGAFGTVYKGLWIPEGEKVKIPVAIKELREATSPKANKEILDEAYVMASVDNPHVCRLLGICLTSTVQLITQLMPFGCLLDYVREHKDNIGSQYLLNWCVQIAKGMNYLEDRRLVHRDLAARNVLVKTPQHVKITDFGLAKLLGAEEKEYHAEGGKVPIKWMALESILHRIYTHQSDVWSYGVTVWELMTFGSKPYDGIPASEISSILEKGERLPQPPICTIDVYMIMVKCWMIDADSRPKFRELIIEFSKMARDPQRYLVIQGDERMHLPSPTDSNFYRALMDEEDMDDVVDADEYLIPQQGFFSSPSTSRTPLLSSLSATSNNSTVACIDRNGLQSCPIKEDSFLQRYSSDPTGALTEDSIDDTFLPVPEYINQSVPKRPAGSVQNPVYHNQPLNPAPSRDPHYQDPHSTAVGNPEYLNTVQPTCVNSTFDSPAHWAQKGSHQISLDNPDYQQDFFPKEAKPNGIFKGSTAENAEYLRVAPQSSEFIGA
Give bare numbers, in nM.

State recorded IC50 for all listed molecules.
1. O=C1Nc2ccccc2/C1=N\n1c(-c2ccc(F)cc2)nc2ccc(F)cc2c1=O
2. O=c1c2cc(F)ccc2nc(-c2ccc(F)cc2)n1N=Cc1ccc([N+](=O)[O-])cc1 [Compound 10e]

1: 75.2; 2: 170

---

Consider the following compounds; for each one, report its melting point.

Here is how some compounds turned out for melting point.
O=c1c2cc(F)ccc2nc(-c2ccc(F)cc2)n1N=Cc1ccco1	228 to 230 °C
O=c1c2cc(F)ccc2nc(-c2ccc(F)cc2)n1N=Cc1ccc(Cl)cc1 [Compound 10f]	224 to 226 °C
O=c1c2cc(F)ccc2nc(-c2ccc(F)cc2)n1N=Cc1ccc(O)cc1 [Compound 10g]	229 to 231 °C
O=C1Nc2ccccc2/C1=N\n1c(-c2ccc(F)cc2)nc2ccc(F)cc2c1=O	223 to 225 °C
O=c1c2cc(F)ccc2nc(-c2ccc(F)cc2)n1N=CC=Cc1ccccc1	220 to 222 °C

State recorded melting point for all listed compounds.
1. O=c1c2cc(F)ccc2nc(-c2ccc(F)cc2)n1N=Cc1ccccc1 [Compound 10a]
2. O=c1c2cc(F)ccc2nc(-c2ccc(F)cc2)n1N=Cc1ccc([N+](=O)[O-])cc1 [Compound 10e]
3. COc1ccc(C=Nn2c(-c3ccc(F)cc3)nc3ccc(F)cc3c2=O)cc1 [Compound 10c]
4. O=c1c2cc(F)ccc2nc(-c2ccc(F)cc2)n1N=Cc1ccc(F)cc1 [Compound 10d]

218 to 220 °C
235 to 237 °C
228 to 230 °C
232 to 234 °C

Write down melting point measured for item Cc1ccc(C=Nn2c(-c3ccc(F)cc3)nc3ccc(F)cc3c2=O)cc1 [Compound 10b] 231 to 233 °C
